Catalogue of AC50 readings, one per entry.
molecular target: UniProtKB P08172; assay type: functional, cell-based
Sequence (P08172 whole entry): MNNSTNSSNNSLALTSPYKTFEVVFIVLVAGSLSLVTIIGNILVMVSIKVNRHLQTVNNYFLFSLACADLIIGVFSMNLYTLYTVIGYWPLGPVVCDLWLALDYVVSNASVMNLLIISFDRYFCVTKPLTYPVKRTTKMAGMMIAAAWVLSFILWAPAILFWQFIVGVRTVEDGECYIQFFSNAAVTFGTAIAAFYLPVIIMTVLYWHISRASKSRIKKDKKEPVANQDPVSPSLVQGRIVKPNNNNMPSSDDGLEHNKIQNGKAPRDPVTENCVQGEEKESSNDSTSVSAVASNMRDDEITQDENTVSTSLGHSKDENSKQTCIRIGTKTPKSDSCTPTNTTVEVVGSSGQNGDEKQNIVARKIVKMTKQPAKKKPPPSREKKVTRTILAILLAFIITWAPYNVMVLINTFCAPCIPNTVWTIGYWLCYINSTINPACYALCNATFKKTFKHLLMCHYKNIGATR

Known results for compounds:
>  <COMPOUND>
CCOC(=O)[C@H](CCc1ccccc1)N[C@@H](C)C(=O)N1CCC[C@H]1C(=O)O

>  <TGT>
UniProtKB P08172

>  <RECORDED MEASUREMENT>
> 10 µM

$$$$
>  <COMPOUND>
CC(N)Cc1ccccc1 (stereo not given) [AMPHETAMINE]

>  <TGT>
UniProtKB P08172

>  <RECORDED MEASUREMENT>
> 30 µM

$$$$

// query Suppose we examine the compound NC1=NC(=O)C(c2ccccc2)O1 (stereo not given) [PEMOLINE] ; what AC50 value has been reported?
// result > 10 µM

// query Suppose we examine the compound CCN(CC)CCOC(=O)c1ccc(N)cc1 [PROCAINE] ; what AC50 value has been reported?
// result > 10 µM

// query Suppose we examine the compound CN1CCCN=C1COC(=O)C(O)(c1ccccc1)C1CCCCC1 (stereo not given) [OXYPHENCYCLIMINE] ; what AC50 value has been reported?
// result 0.07 µM

* * *

Catalogue of AC50 readings, one per entry.
target: Progesterone receptor (Homo sapiens); type: functional; further: assay procedure not described here
Sequence (P06401 whole entry): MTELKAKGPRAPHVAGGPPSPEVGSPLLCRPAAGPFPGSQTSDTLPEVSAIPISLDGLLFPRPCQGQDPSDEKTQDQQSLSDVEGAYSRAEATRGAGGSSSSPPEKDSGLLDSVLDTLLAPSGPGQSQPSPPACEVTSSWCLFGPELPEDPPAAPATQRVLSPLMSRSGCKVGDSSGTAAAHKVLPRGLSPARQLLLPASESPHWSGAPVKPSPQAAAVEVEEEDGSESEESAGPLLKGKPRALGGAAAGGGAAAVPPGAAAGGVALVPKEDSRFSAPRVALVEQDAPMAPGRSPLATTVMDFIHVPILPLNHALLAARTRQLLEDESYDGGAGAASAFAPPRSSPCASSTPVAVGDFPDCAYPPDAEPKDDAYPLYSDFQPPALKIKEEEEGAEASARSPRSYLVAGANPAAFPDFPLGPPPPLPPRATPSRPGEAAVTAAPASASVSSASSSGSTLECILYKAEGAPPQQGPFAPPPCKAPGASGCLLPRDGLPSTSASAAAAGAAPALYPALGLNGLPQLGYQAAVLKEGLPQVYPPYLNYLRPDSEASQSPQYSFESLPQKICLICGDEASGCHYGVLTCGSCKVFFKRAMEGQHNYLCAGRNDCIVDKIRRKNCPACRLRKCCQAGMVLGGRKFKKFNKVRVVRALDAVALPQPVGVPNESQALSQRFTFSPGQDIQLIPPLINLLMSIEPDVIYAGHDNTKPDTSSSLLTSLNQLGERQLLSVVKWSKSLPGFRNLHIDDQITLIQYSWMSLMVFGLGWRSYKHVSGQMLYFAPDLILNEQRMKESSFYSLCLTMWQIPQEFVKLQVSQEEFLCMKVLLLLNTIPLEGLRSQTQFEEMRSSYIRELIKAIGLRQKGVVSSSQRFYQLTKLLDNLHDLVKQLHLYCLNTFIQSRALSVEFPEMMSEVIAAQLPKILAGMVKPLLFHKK

>  <COMPOUND>
[H]/N=C(/N)c1ccc(NCc2nc3cc(C(=O)N(CCC(=O)O)c4ccccn4)ccc3n2C)cc1

>  <TGT>
Progesterone receptor (Homo sapiens); further: assay procedure not described here

>  <AC50>
> 30 µM

$$$$
>  <COMPOUND>
CC(N)Cc1ccccc1 (centres undefined)

>  <TGT>
Progesterone receptor (Homo sapiens); further: assay procedure not described here

>  <AC50>
> 30 µM

$$$$
>  <COMPOUND>
CC(C)NNC(=O)c1ccncc1

>  <TGT>
Progesterone receptor (Homo sapiens); further: assay procedure not described here

>  <AC50>
> 30 µM

$$$$
>  <COMPOUND>
Cc1cccc(C)c1NC(=O)C1CCCCN1C (centres undefined) [MEPIVACAINE]

>  <TGT>
Progesterone receptor (Homo sapiens); further: assay procedure not described here

>  <AC50>
> 30 µM

$$$$
>  <COMPOUND>
COc1c(C)c2c(c(O)c1C/C=C(\C)CCC(=O)OCCN1CCOCC1)C(=O)OC2 [MYCOPHENOLATE MOFETIL]

>  <TGT>
Progesterone receptor (Homo sapiens); further: assay procedure not described here

>  <AC50>
> 30 µM

$$$$
>  <COMPOUND>
CCCCC(C)(O)C/C=C/[C@H]1[C@H](O)CC(=O)[C@@H]1CCCCCCC(=O)OC (some centres undefined)

>  <TGT>
Progesterone receptor (Homo sapiens); further: assay procedure not described here

>  <AC50>
27 µM

$$$$
>  <COMPOUND>
CC(C(=O)O)c1ccc(C(=O)c2cccs2)cc1 (centres undefined)

>  <TGT>
Progesterone receptor (Homo sapiens); further: assay procedure not described here

>  <AC50>
> 10 µM

$$$$
>  <COMPOUND>
CN1C(=O)CC(c2ccccc2)C1=O (centres undefined) [PHENSUXIMIDE]

>  <TGT>
Progesterone receptor (Homo sapiens); further: assay procedure not described here

>  <AC50>
> 10 µM

$$$$

Let's switch to this compound now.
// query Suppose we examine the compound "CCCOc1ccc(C(=O)OCCN(CC)CC)cc1N" ; what AC50 value has been reported?
// result > 30 µM

* * *

Biological target: 5-hydroxytryptamine receptor 3A (Homo sapiens); further: assay procedure not described here
Sequence (P46098 whole entry): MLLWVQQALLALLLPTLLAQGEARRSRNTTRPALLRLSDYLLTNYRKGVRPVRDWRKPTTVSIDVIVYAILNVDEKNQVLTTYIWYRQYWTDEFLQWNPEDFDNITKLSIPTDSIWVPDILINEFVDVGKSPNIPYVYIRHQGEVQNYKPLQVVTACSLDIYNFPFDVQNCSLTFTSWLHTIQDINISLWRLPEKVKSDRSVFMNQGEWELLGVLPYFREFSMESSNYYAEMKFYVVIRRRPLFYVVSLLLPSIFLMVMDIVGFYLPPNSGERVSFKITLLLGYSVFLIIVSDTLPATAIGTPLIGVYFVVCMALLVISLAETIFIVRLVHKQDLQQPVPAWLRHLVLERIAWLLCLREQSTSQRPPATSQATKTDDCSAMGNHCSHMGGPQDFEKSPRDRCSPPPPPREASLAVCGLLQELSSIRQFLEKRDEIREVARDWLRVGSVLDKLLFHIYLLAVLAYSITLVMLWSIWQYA
Type: functional
Catalogue of AC50 readings, one per entry.

// query Suppose we examine the compound COc1cc2c(cc1OC)C(=O)C(CC1CCN(Cc3ccccc3)CC1)C2 (configuration not stated) [DONEPEZIL] ; what AC50 value has been reported?
// result > 30 µM

// query Suppose we examine the compound CC(N)Cc1ccccc1 (configuration not stated) [AMPHETAMINE] ; what AC50 value has been reported?
// result > 30 µM

// query Suppose we examine the compound "COC(=O)N[C@H](C(=O)N1CCC[C@H]1c1nc(-c2ccc(-c3ccc(-c4c[nH]c([C@@H]5CCCN5C(=O)[C@@H](NC(=O)OC)C(C)C)n4)cc3)cc2)c[nH]1)C(C)C" ; what AC50 value has been reported?
// result > 30 µM

// query Suppose we examine the compound C1COC(NC(C2CC2)C2CC2)=N1 [RILMENIDINE] ; what AC50 value has been reported?
// result > 30 µM

// query Suppose we examine the compound Cc1c(Cl)cccc1Nc1ccccc1C(=O)O [TOLFENAMIC ACID] ; what AC50 value has been reported?
// result > 30 µM

// query Suppose we examine the compound CC(C)C(=O)Nc1ccc([N+](=O)[O-])c(C(F)(F)F)c1 [FLUTAMIDE] ; what AC50 value has been reported?
// result > 30 µM

// query Suppose we examine the compound COc1ccc2c(c1)c(CC(=O)OCC(=O)O)c(C)n2C(=O)c1ccc(Cl)cc1 [ACEMETACIN] ; what AC50 value has been reported?
// result > 30 µM

// query Suppose we examine the compound CN(C)CCCN1c2ccccc2Sc2ccccc21 [PROMAZINE] ; what AC50 value has been reported?
// result > 10 µM

// query Suppose we examine the compound CC(C)c1c(C(=O)Nc2ccccc2)c(-c2ccccc2)c(-c2ccc(F)cc2)n1CC[C@@H](O)C[C@@H](O)CC(=O)O [ATORVASTATIN] ; what AC50 value has been reported?
// result > 30 µM

// query Suppose we examine the compound NC(N)=Nc1nc(CSCCC(N)=NS(N)(=O)=O)cs1 [FAMOTIDINE] ; what AC50 value has been reported?
// result > 10 µM

// query Suppose we examine the compound NS(=O)(=O)c1cc(-c2nnn[nH]2)c(NCc2cccs2)cc1Cl [AZOSEMIDE] ; what AC50 value has been reported?
// result > 30 µM

// query Suppose we examine the compound CCOc1cc(N)c([N+](=O)[O-])cc1C(=O)NC1CCN(CC2CC=CCC2)CC1 (configuration not stated) [CINITAPRIDE] ; what AC50 value has been reported?
// result 22 µM

// query Suppose we examine the compound NC[C@H]1O[C@H](O[C@H]2[C@H](O)[C@@H](O[C@H]3O[C@H](CO)[C@@H](O)[C@H](N)[C@H]3O)[C@H](N)C[C@@H]2N)[C@H](O)[C@@H](O)[C@@H]1O [KANAMYCIN] ; what AC50 value has been reported?
// result > 30 µM

// query Suppose we examine the compound CC(C)(Oc1ccc(C2CC2(Cl)Cl)cc1)C(=O)O (configuration not stated) [CIPROFIBRATE] ; what AC50 value has been reported?
// result > 30 µM

// query Suppose we examine the compound CCCCCN(C)CCC(O)(P(=O)(O)O)P(=O)(O)O [IBANDRONIC ACID] ; what AC50 value has been reported?
// result > 30 µM

// query Suppose we examine the compound CN1CCCN=C1COC(=O)C(O)(c1ccccc1)C1CCCCC1 (configuration not stated) [OXYPHENCYCLIMINE] ; what AC50 value has been reported?
// result > 30 µM

// query Suppose we examine the compound CS(=O)(=O)c1ccc([C@@H](O)[C@@H](CO)NC(=O)C(Cl)Cl)cc1 [THIAMPHENICOL] ; what AC50 value has been reported?
// result > 30 µM

// query Suppose we examine the compound CC(C(=O)O)c1ccc(C(=O)c2cccs2)cc1 (configuration not stated) [SUPROFEN] ; what AC50 value has been reported?
// result > 30 µM

* * *

The reader will find AC50 measurements below, all made with D(1A) dopamine receptor (Homo sapiens).
Sequence (P21728 whole entry): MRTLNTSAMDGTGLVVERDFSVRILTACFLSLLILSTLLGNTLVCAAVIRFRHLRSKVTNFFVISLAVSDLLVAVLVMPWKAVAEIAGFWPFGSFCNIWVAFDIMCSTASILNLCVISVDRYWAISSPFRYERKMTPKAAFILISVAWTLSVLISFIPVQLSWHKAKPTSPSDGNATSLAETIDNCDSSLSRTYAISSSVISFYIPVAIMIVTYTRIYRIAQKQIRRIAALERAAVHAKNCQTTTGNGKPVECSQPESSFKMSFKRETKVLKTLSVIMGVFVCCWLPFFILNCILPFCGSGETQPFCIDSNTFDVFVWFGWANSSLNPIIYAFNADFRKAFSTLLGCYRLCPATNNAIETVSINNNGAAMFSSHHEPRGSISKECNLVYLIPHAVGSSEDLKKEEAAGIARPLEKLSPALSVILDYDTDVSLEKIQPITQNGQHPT

Known results for molecules:
>  <MOLECULE>
O=C1[C@H](CC[C@H](O)c2ccc(F)cc2)[C@@H](c2ccc(O)cc2)N1c1ccc(F)cc1 [EZETIMIBE]

>  <TGT>
D(1A) dopamine receptor (Homo sapiens); further: assay procedure not described here

>  <RECORDED MEASUREMENT>
29.4 µM

$$$$
>  <MOLECULE>
CS(=O)(=O)Nc1cc2occ(NC=O)c(=O)c2cc1Oc1ccccc1 [IGURATIMOD]

>  <TGT>
D(1A) dopamine receptor (Homo sapiens); further: assay procedure not described here

>  <RECORDED MEASUREMENT>
> 30 µM

$$$$
>  <MOLECULE>
NCc1ccccc1CC(=O)N[C@@H]1C(=O)N2C(C(=O)O)=C(CSc3nnnn3CC(=O)O)CS[C@H]12 [CEFORANIDE]

>  <TGT>
D(1A) dopamine receptor (Homo sapiens); further: assay procedure not described here

>  <RECORDED MEASUREMENT>
> 30 µM

$$$$
>  <MOLECULE>
CN(CCOc1ccc(NS(C)(=O)=O)cc1)CCc1ccc(NS(C)(=O)=O)cc1 [DOFETILIDE]

>  <TGT>
D(1A) dopamine receptor (Homo sapiens); further: assay procedure not described here

>  <RECORDED MEASUREMENT>
> 30 µM

$$$$
>  <MOLECULE>
CCOC(=O)C(c1c(O)c2ccccc2oc1=O)c1c(O)c2ccccc2oc1=O [ETHYL BISCOUMACETATE]

>  <TGT>
D(1A) dopamine receptor (Homo sapiens); further: assay procedure not described here

>  <RECORDED MEASUREMENT>
> 30 µM

$$$$

// query Suppose we examine the molecule CC(=O)OC(C)C[N+](C)(C)C (stereo not drawn) [METHACHOLINE] ; what AC50 value has been reported?
// result > 30 µM

// query Suppose we examine the molecule CCC(Cc1c(I)cc(I)c(N)c1I)C(=O)O (stereo not drawn) [IOPANOIC ACID] ; what AC50 value has been reported?
// result > 30 µM

// query Suppose we examine the molecule NS(=O)(=O)c1cc2c(cc1Cl)NC(CC1CCCC1)NS2(=O)=O (stereo not drawn) [CYCLOPENTHIAZIDE] ; what AC50 value has been reported?
// result > 30 µM

// query Suppose we examine the molecule CC(O)CO (stereo not drawn) [PROPYLENE GLYCOL] ; what AC50 value has been reported?
// result > 30 µM

// query Suppose we examine the molecule Cn1cc[nH]c1=S [METHIMAZOLE] ; what AC50 value has been reported?
// result > 30 µM

// query Suppose we examine the molecule C[N+](C)(C)CCCCCCCCCC[N+](C)(C)C [DECAMETHONIUM] ; what AC50 value has been reported?
// result > 30 µM
